System: Hepatovirus A
Experiment: Antiviral activity against HAV in Vero cells assessed as plaque infectivity reduction at 10 ug/ml
Assay type: functional
Parameters: scale not given: the % may be the effect or the level left
MEASURED PROPERTY: Activity (%)

[[record]]
given_smiles = "O=C(C/C(=C\\c1cn(-c2ccccc2)nc1-c1ccccc1)c1n[nH]c(=S)[nH]1)c1ccc(Cl)cc1"
measured_property = "Activity"
value_measured = 40

[[record]]
given_smiles = "O=C1OC(c2ccc(Cl)cc2)=C/C1=C\\c1cn(-c2ccccc2)nc1-c1ccccc1"
measured_property = "Activity"
value_measured = 40

[[record]]
given_smiles = "O=C(C/C(=C\\c1cn(-c2ccccc2)nc1-c1ccccc1)c1n[nH]c(=S)o1)c1ccc(Cl)cc1"
measured_property = "Activity"
value_measured = 0

[[record]]
given_smiles = "NC(=O)NNC(=O)/C(=C/c1cn(-c2ccccc2)nc1-c1ccccc1)CC(=O)c1ccc(Cl)cc1"
measured_property = "Activity"
value_measured = 0

[[record]]
given_smiles = "NNC(=O)/C(=C/c1cn(-c2ccccc2)nc1-c1ccccc1)CC(=O)c1ccc(Cl)cc1"
measured_property = "Activity"
value_measured = 20

[[record]]
given_smiles = "O=C(NCc1ccccc1)/C(=C/c1cn(-c2ccccc2)nc1-c1ccccc1)CC(=O)c1ccc(Cl)cc1"
measured_property = "Activity"
value_measured = 40

[[record]]
given_smiles = "O=C(C/C(=C\\c1cn(-c2ccccc2)nc1-c1ccccc1)c1n[nH]c(=O)[nH]1)c1ccc(Cl)cc1"
measured_property = "Activity"
value_measured = 0

[[record]]
given_smiles = "COc1ccc(C2=C/C(=C\\c3cn(-c4ccccc4)nc3-c3ccccc3)C(=O)N2Cc2ccccc2)cc1"
measured_property = "Activity"
value_measured = 0

[[record]]
given_smiles = "O=C(NNC(=O)c1ccccc1)/C(=C/c1cn(-c2ccccc2)nc1-c1ccccc1)CC(=O)c1ccc(Cl)cc1"
measured_property = "Activity"
value_measured = 30

[[record]]
given_smiles = "COc1ccc(-c2cc(Cc3cn(-c4ccccc4)nc3-c3ccccc3)c(=O)[nH]n2)cc1"
measured_property = "Activity"
value_measured = 20

